viability at 48 h, 25 µM overview
- run_description: in vitro
- experimental_context: human, hek293t cells
The response must be a number in % with no trailing unit.

C=CCNC(=O)C(C#N)=Cc1ccc2c(c1)OCCO2	86.7

The molecule listed as `C=CC(=O)N1CCC[C@H]1Cn1cc(C2CC2)nn1` shows viability at 48 h, 25 µM equal to 92.2

The molecule listed as `C=CC(=O)N1CCC(NC(=O)Nc2ccccc2OC)CC1` shows viability at 48 h, 25 µM equal to 106

The molecule listed as `O=C(CCl)NCC(=O)N1CCC(Cc2ccccc2)CC1` shows viability at 48 h, 25 µM equal to 21.7

The molecule listed as `Cc1ccc(Cc2cnc(NC(=O)CCl)s2)cc1` shows viability at 48 h, 25 µM equal to -0.392

The molecule listed as CSc1ccccc1CC(C)NC(=O)CCl (centres unmarked) shows viability at 48 h, 25 µM equal to 1.59

The molecule listed as `C=CC(=O)N[C@H]1C[C@H](C)S(=O)(=O)c2sccc21` shows viability at 48 h, 25 µM equal to 84.1

The molecule listed as C=CC(=O)NC1CC2CCC(C1)S2 (centres unmarked) shows viability at 48 h, 25 µM equal to 84.7

The molecule listed as `C=CC(=O)NC[C@@H]1C[C@H](F)CN1Cc1ccnn1C` shows viability at 48 h, 25 µM equal to 78.5

The molecule listed as `C=CC(=O)N(CC)CC(=O)N1CCc2[nH]nc(C(F)(F)F)c2C1` shows viability at 48 h, 25 µM equal to 64.2

The molecule listed as `Cc1ccc(NC(=O)C(C#N)=CC2=Cc3ccccc3OC2)cc1` shows viability at 48 h, 25 µM equal to 119

* * *

- run_description: in vitro
- experimental_context: human, hek293t cells
readout_label: viability at 48 h, 25 µM (%)
The response must be a number in % with no trailing unit.

The molecule listed as `Cc1ccc(NC(=O)C(C#N)=Cc2cccs2)c(C)c1` shows viability at 48 h, 25 µM equal to 101

The molecule listed as C=CC(=O)NCC1CCN(Cc2ccccc2)CC1C (stereo not drawn) shows viability at 48 h, 25 µM equal to 94.1

The molecule listed as `CCN(C(=O)CCl)c1c(N)n(Cc2ccccc2)c(=O)[nH]c1=O` shows viability at 48 h, 25 µM equal to 65.4

The molecule listed as `N#CC(=Cc1ccc(C#N)cc1)C(=O)Nc1ccc(F)c(Cl)c1` shows viability at 48 h, 25 µM equal to 102

The molecule listed as CC(Cl)C(=O)NCCc1nnnn1-c1ccccc1 (stereo not drawn) shows viability at 48 h, 25 µM equal to 92.2

The molecule listed as `C=CC(=O)N1CCC(c2nc3ccccc3o2)CC1` shows viability at 48 h, 25 µM equal to 80.1

The molecule listed as `N#CC(=Cc1ccccc1Cl)C(=O)NCc1ccccc1` shows viability at 48 h, 25 µM equal to 80.5

The molecule listed as `C=CC(=O)NCc1cccc(OC)n1` shows viability at 48 h, 25 µM equal to 79.2

The molecule listed as `Cn1cccc1C(=O)CCl` shows viability at 48 h, 25 µM equal to 64.6

The molecule listed as C=CC(=O)N[C@H]1CCO[C@@H]1c1ccnn1C(C)C (racemic) shows viability at 48 h, 25 µM equal to 52.7

The molecule listed as C=CC(=O)N1CCC(C(=O)N2CCC(CC(N)=O)C2)CC1 (stereo not drawn) shows viability at 48 h, 25 µM equal to 65

The molecule listed as CC(Cl)C(=O)NC1CCN(CC(=O)Nc2ccccc2)CC1 (stereo not drawn) shows viability at 48 h, 25 µM equal to 85.2

The molecule listed as `C=CC(=O)Nc1sc2c(c1C(=O)c1ccc(C)cc1)CCOC2` shows viability at 48 h, 25 µM equal to 0.993

The molecule listed as `O=C(CCl)Nc1cccc(S(=O)(=O)N2CCOCC2)c1` shows viability at 48 h, 25 µM equal to 0.715

The molecule listed as `N#CC(=Cc1ccco1)C(=O)NS(=O)(=O)c1cccc2cnccc12` shows viability at 48 h, 25 µM equal to 105

* * *

- run_description: in vitro
- experimental_context: human, hek293t cells
Could you please mark class 1 for values of viability at 48 h, 25 µM below 80% and class 0 for values at or above it?

Consider the following illustrative entries.
C=CC(=O)Nc1c2c(cc3c1CCC3)CCC2	class 1
CC(Cl)C(=O)Nc1sccc1C(N)=O (stereo not drawn)	class 0

Problem: Say whether its viability at 48 h, 25 µM is strictly beneath 80%. Entry: `COc1ccc(NC(=O)C(C#N)=Cc2ccco2)cc1`
Solution: class 0

Problem: Say whether its viability at 48 h, 25 µM is strictly beneath 80%. Entry: `O=C(CCl)NC1CCS(=O)(=O)CC1`
Solution: class 1

Problem: Say whether its viability at 48 h, 25 µM is strictly beneath 80%. Entry: `COc1ccc(C=C(C#N)C(=O)NCc2ccco2)cc1`
Solution: class 0

Problem: Say whether its viability at 48 h, 25 µM is strictly beneath 80%. Entry: `CN1C(=C(C#N)C(=O)CCl)N(C)c2ccccc21`
Solution: class 0

Problem: Say whether its viability at 48 h, 25 µM is strictly beneath 80%. Entry: `O=C(CCl)NC1CN(c2ccc(C(F)(F)F)cc2)C1`
Solution: class 1

* * *

- run_description: in vitro
- experimental_context: human, hek293t cells
readout_label: viability at 48 h, 25 µM (%)
The response must be a number in % with no trailing unit.

Solved cases below.
C=CC(=O)Nc1nc(C)c(CC(C)C)s1	0.934
C=CC(=O)N1CCC(C(=O)N(C)Cc2ccon2)CC1	90.3
N#CC(=CC=Cc1ccccc1[N+](=O)[O-])C(=O)Nc1ccccc1	48
O=C(CCl)N1CCN(C(=O)CC(F)(F)F)CC1	0.522
C=CC(=O)NC1CCC(S(C)(=O)=O)C1 (stereo not drawn)	94.3

# input for lookup
The compound listed as O=C(CCl)N1CCN(C2CCCN(C3CCOCC3)C2=O)CC1 (stereo not drawn) shows viability at 48 h, 25 µM equal to 9.07

* * *

- run_description: in vitro
- experimental_context: human, hek293t cells
viability at 48 h, 25 µM overview
The response must be a number in % with no trailing unit.

Cc1ccc(C=C(C#N)C(=O)Nc2ccccc2C)cc1	118
CC1(C)Cc2cc(C=C(C#N)C(=O)Nc3ccccc3F)ccc2O1	68
CCOC(=O)c1[nH]c(C)c(C(=O)CCl)c1C	0.365

The molecule listed as CC(Cl)C(=O)NCc1cc(-c2ccccc2)on1 (stereo not drawn) shows viability at 48 h, 25 µM equal to 74.7

The molecule listed as C=CC(=O)N1CCCC(S(C)(=O)=O)C1 (stereo not drawn) shows viability at 48 h, 25 µM equal to 63.9

The molecule listed as `C=CC(=O)Nc1cnn(-c2ccccc2C)c1C(F)F` shows viability at 48 h, 25 µM equal to 116

* * *

- run_description: in vitro
- experimental_context: human, hek293t cells
Could you please mark Y for values of viability at 48 h, 25 µM below 90% and N for values at or above it?

Consider the following illustrative entries.
CC1CCCCC1NC(=O)C(C#N)=CC=Cc1ccccc1[N+](=O)[O-] (stereo not shown)	Y
C=CC(=O)N1C[C@H](NC(C)=O)[C@@H](c2ccnn2C)C1 (racemic)	N
CC(Cl)C(=O)N1C2CCC1CC(N(C)C(=O)c1ccccc1)C2 (stereo not shown)	N
C=CC(=O)NC1CCS(=O)(=O)c2ccc(F)cc21 (stereo not shown)	Y

Problem: Say whether its viability at 48 h, 25 µM is strictly beneath 90%. Entry: `N#CC(=Cc1cccs1)C(=O)Nc1ccc(F)cc1`
Solution: N

Problem: Say whether its viability at 48 h, 25 µM is strictly beneath 90%. Entry: CC(=O)Nc1ccc(C2=NN(C(=O)CCl)C(c3ccco3)C2)cc1 (stereo not shown)
Solution: Y

Problem: Say whether its viability at 48 h, 25 µM is strictly beneath 90%. Entry: `CCCCNC(=O)C(C#N)=Cc1cc(C)c(O)c(C)c1`
Solution: N

Problem: Say whether its viability at 48 h, 25 µM is strictly beneath 90%. Entry: `Cc1ccc(C=C(C#N)C(=O)Nc2cc(Cl)ccc2Cl)s1`
Solution: N

Problem: Say whether its viability at 48 h, 25 µM is strictly beneath 90%. Entry: `C=CC(=O)NCc1ccc(C(C)(C)C)[nH]c1=O`
Solution: Y

Problem: Say whether its viability at 48 h, 25 µM is strictly beneath 90%. Entry: CC(Cl)C(=O)N(C(C)CS(C)(=O)=O)C1CC1 (stereo not shown)
Solution: N

Problem: Say whether its viability at 48 h, 25 µM is strictly beneath 90%. Entry: `CS(=O)(=O)c1ccc(C(=O)CCl)cc1`
Solution: Y

Problem: Say whether its viability at 48 h, 25 µM is strictly beneath 90%. Entry: `C=CC(=O)NCc1ccnc(-n2cncn2)c1`
Solution: N

Problem: Say whether its viability at 48 h, 25 µM is strictly beneath 90%. Entry: `Cc1cc(-n2c(C)cc(C(=O)CCl)c2C)no1`
Solution: Y

Problem: Say whether its viability at 48 h, 25 µM is strictly beneath 90%. Entry: C=CC(=O)N(CCC(N)=O)C1CCOc2ccccc21 (stereo not shown)
Solution: Y
